Numbers sourced from paper PMC6212398.

- assayed system: T1, Hsp27 3D (pseudo-phosphorylation mutant S15D, S78D, S82D) (human, UniProt P04792 1-205, S15 replaced with aspartate | S78 replaced with aspartate | S82 replaced with …)
- T1 construct: Human Hsp27 (HSPB1) in which three serines (S15, S78 and S82) are replaced with aspartate; Vector was a gift of the Dickey laboratory; Compared throughout with the full-length wild type, so probably the whole protein
- T1 sequence (P04792 whole entry S15D/S78D/S82D): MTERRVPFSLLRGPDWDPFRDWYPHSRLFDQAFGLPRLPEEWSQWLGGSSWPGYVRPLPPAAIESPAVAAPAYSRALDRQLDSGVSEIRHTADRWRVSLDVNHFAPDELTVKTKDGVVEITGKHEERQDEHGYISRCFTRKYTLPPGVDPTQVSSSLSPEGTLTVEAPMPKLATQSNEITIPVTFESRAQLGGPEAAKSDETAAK
- test protocol: ITC; peptide (1 mM) titrated into a cell with Hsp27 proteins (100 µM); SEC buffer (50 mM sodium phosphate, 100 mM NaCl); 25 °C; one-site binding model
- conditions: both partners purified
pKd: −log10 of the molar value.
measured property: pKd

// query Look at this binder and give its reported pKd. EITIPVTHE (Human Hsp27 (HSPB1) IPV 9-mer with the penultimate phenylalanine swapped for histidine (the residue at this position in the motif of BAG3); also called His-containing IPV peptide; chimeric peptide; source: synthetic peptide, bought: Genescript) [Hsp27 IPV H peptide (EITIPVTHE)]
// result < 4.30
